System: SK-MEL-28 melanoma
Assay: NCI-60 one-dose screen, 48 h (100 = growth as untreated, 0 = no growth, -100 = all killed)
Details: 10 µM unless noted
About 83,000 compounds went through this panel and 20% of them were active in at least one assay; those are over-represented in the sample as a whole. Activity calls are given as the source filed them. How the source made its calls: active means growth percent below 10; inactive means the rest.
parameter-measured: growth

Here are 4 molecules together with their reported answers.
{"columns": ["smiles-data", "tested-system", "value"],
 "data": [
  ["CCOc1nc(-c2ccccc2)cc2c(O)c(C(=O)O)[nH]c(=O)c12", "SK-MEL-28 melanoma", "138% (inactive)"],
  ["O=C(/C=C/c1ccccc1)c1ccc(O)c(CN2CCN(c3cc4c(cc3F)c(=O)c(C(=O)O)cn4C3CC3)CC2)c1", "SK-MEL-28 melanoma", "46.5% (inactive)"],
  ["CC[C@H]1OC(=O)[C@H](C)[C@@H](O[C@H]2C[C@@](C)(OC)[C@@H](O)[C@H](C)O2)[C@H](C)[C@@H](O[C@@H]2O[C@H](C)C[C@H](N(C)C)[C@H]2O)[C@](C)(O)C[C@H](C)CN(C)[C@H](C)[C@@H](O)[C@]1(C)O", "SK-MEL-28 melanoma", "114% (inactive)"],
  ["C=C1c2nc3ccccc3n2C=C(c2ccc(OC)cc2)N1Cc1ccccc1", "SK-MEL-28 melanoma", "119% (inactive)"]
]}

Let's switch to this molecule now.
// query Output measured growth for this item: COc1cc(-c2nn(-c3ccc(Br)cc3)cc2C(=O)O)ccc1O
// result 119% (inactive)

----------
System: SF-539 CNS
Experiment: NCI-60 one-dose screen, 48 h
Conditions: 10 µM unless noted
This is part of a sample that, as a whole, favours compounds with a hit. Of some 83,000 tested, about 20% had one in any assay. Calls of active or inactive are those of the source. Rule for the calls: active = growth percent below 10; inactive = the rest.
Choose one outcome from this list and give only that: active, inactive

// query Assay outcome for O=C(COc1cccc(/C=C2\CSc3ccccc3C2=O)c1)Nc1nccs1 : what was it?
// result inactive

// query Assay outcome for COc1cc2c(cc1OC)C(Sc1ccc(SC)cc1)c1c(nc(N)c(C#N)c1N)O2 (centres undefined) : what was it?
// result active

// query Assay outcome for COc1cccc(/C=N/NC(=O)c2ccccc2Nc2ccnc(C(F)(F)F)c2)c1O : what was it?
// result active

// query Assay outcome for CCN1CCN(c2nc(NCCNc3ccnc4cc(Cl)ccc34)c3ccccc3n2)CC1 : what was it?
// result active

----------
Test system: 786-0 renal
Assay: NCI-60 one-dose screen, 48 h
Conditions: 10 µM unless noted
About 83,000 compounds went through this panel and 20% of them were active in at least one assay; those are over-represented in the sample as a whole. Activity calls are given as the source filed them. How the source made its calls: active means growth percent below 10; inactive means the rest.
Choose one outcome from this list and give only that: True = active, False = inactive

Answered cases to consult:
{"columns": ["compound", "qualitative-label"],
 "data": [
  ["CCCCCCN(CCCCCC)CCC(O)c1ccc2ccccc2c1 (centres undefined)", "False"],
  ["COc1ccc(CCNc2nc3c(c(=O)n(Cc4ccc(Br)cc4)c(=O)n3C)n2C)cc1OC", "False"],
  ["Cc1nc(Nc2ccc(F)c(Cl)c2)sc1C(=O)O", "False"]
]}

Moving on to the next compound.
// query Assay outcome for CCN(CC)c1ccc(-c2cc(-c3cc(OC)c(OC)c(OC)c3)nc(N3CCOCC3)c2C#N)cc1 : what was it?
// result True
